molecular target: HIV-1 JR-CSF Env D325A (HIV-1 isolate JR-CSF) (UniProt P20871); experiment: cell-based or functional assay
Reported Fold IC50 increase relative to wild-type by item:
// note: answer is a bare numeric in fold

Some entries whose results are on file:
| binder | unit.tag | readout.value |
| --- | --- | --- |
| PGT-126 (antibody, V domains shown) VH: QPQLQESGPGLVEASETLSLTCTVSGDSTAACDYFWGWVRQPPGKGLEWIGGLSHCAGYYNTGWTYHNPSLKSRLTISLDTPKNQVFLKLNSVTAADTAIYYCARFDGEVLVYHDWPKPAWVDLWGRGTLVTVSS VL: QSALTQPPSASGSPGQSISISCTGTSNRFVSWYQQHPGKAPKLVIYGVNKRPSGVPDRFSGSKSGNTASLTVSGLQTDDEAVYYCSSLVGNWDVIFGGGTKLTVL | fold | 0.5 |
| PGT-135 (antibody, V domains shown) VH: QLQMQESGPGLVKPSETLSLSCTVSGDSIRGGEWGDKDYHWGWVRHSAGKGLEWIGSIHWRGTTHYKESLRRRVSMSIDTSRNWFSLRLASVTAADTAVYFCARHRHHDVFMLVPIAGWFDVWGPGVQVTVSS VL: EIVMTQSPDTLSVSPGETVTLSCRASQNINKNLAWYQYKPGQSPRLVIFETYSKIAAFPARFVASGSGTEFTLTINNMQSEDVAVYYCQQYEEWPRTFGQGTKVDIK | fold | 0.5 |

Data request: Record request: Fold IC50 increase relative to wild-type value, item PGT-127 (antibody, V domains shown) VH: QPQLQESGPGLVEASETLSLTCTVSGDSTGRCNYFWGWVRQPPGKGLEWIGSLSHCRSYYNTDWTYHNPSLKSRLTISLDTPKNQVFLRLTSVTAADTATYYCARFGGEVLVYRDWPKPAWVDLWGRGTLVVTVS VL: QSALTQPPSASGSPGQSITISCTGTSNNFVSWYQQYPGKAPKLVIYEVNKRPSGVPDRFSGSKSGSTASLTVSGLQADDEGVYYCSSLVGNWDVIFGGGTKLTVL
Data returned: 0.93
